target: NAD kinase 1 (Listeria monocytogenes serotype 4b (strain F2365), UniProt Q721J8); test: Inhibition of Listeria monocytogenes NADK1 expressed in Escherichia coli assessed as inhibition constant measured every 32 secs for 32 mins by absorbance based analysis
Sequence (Q721J8 whole entry): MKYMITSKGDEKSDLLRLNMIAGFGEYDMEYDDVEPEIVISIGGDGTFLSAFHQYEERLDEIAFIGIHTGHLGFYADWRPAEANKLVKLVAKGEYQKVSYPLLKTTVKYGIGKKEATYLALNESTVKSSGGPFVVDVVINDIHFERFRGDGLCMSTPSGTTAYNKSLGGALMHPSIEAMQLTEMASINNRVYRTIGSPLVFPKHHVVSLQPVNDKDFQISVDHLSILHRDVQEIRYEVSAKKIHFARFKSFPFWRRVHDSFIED
Rule: Ki below 20 µM gives 1, anything at or above gives -1.

{"molecule.smiles": "NCCNC(=O)NC[C@H]1O[C@@H](n2c(C#CCN(CC(=O)O)C[C@H]3O[C@@H](n4cnc5c(N)ncnc54)[C@H](O)[C@@H]3O)nc3c(N)ncnc32)[C@H](O)[C@@H]1O", "target": "NAD kinase 1 (Listeria monocytogenes serotype 4b (strain F2365), UniProt Q721J8)", "class": 1}
{"molecule.smiles": "Nc1ncnc2c1ncn2[C@@H]1O[C@H](CN2CC#Cc3nc4c(N)ncnc4n3[C@@H]3O[C@H](CNC(=O)NCCCNC(=O)C2)[C@@H](O)[C@H]3O)[C@@H](O)[C@H]1O", "target": "NAD kinase 1 (Listeria monocytogenes serotype 4b (strain F2365), UniProt Q721J8)", "class": 1}
{"molecule.smiles": "NCCS(=O)(=O)NC[C@H]1O[C@@H](n2c(C#CCOC[C@H]3O[C@@H](n4cnc5c(N)ncnc54)[C@H](O)[C@@H]3O)nc3c(N)ncnc32)[C@H](O)[C@@H]1O", "target": "NAD kinase 1 (Listeria monocytogenes serotype 4b (strain F2365), UniProt Q721J8)", "class": 1}
{"molecule.smiles": "Nc1ncnc2c1ncn2[C@@H]1O[C@H](CN2CC#Cc3nc4c(N)ncnc4n3[C@@H]3O[C@H](CNC(=O)CC(=O)NCC2)[C@@H](O)[C@H]3O)[C@@H](O)[C@H]1O", "target": "NAD kinase 1 (Listeria monocytogenes serotype 4b (strain F2365), UniProt Q721J8)", "class": 1}
{"molecule.smiles": "NCCN(CC#Cc1nc2c(N)ncnc2n1[C@@H]1O[C@H](CNC(=O)CC(=O)O)[C@@H](O)[C@H]1O)C[C@H]1O[C@@H](n2cnc3c(N)ncnc32)[C@H](O)[C@@H]1O", "target": "NAD kinase 1 (Listeria monocytogenes serotype 4b (strain F2365), UniProt Q721J8)", "class": -1}
{"molecule.smiles": "NCCC(=O)NC[C@H]1O[C@@H](n2c(C#CCN(CC(=O)O)C[C@H]3O[C@@H](n4cnc5c(N)ncnc54)[C@H](O)[C@@H]3O)nc3c(N)ncnc32)[C@H](O)[C@@H]1O", "target": "NAD kinase 1 (Listeria monocytogenes serotype 4b (strain F2365), UniProt Q721J8)", "class": 1}
{"molecule.smiles": "Nc1ncnc2c1ncn2[C@@H]1O[C@H](CN2CC#Cc3nc4c(N)ncnc4n3[C@@H]3O[C@H](CNC(=O)CNC(=O)C2)[C@@H](O)[C@H]3O)[C@@H](O)[C@H]1O", "target": "NAD kinase 1 (Listeria monocytogenes serotype 4b (strain F2365), UniProt Q721J8)", "class": 1}
{"molecule.smiles": "NCC(=O)NC[C@H]1O[C@@H](n2c(C#CCN(CC(=O)O)C[C@H]3O[C@@H](n4cnc5c(N)ncnc54)[C@H](O)[C@@H]3O)nc3c(N)ncnc32)[C@H](O)[C@@H]1O", "target": "NAD kinase 1 (Listeria monocytogenes serotype 4b (strain F2365), UniProt Q721J8)", "class": -1}
{"molecule.smiles": "NCCCNC(=O)NC[C@H]1O[C@@H](n2c(C#CCN(CC(=O)O)C[C@H]3O[C@@H](n4cnc5c(N)ncnc54)[C@H](O)[C@@H]3O)nc3c(N)ncnc32)[C@H](O)[C@@H]1O", "target": "NAD kinase 1 (Listeria monocytogenes serotype 4b (strain F2365), UniProt Q721J8)", "class": 1}
{"molecule.smiles": "Nc1ncnc2c1ncn2[C@@H]1O[C@H](CN2CC#Cc3nc4c(N)ncnc4n3[C@@H]3O[C@H](CNC(=O)NCCNC(=O)C2)[C@@H](O)[C@H]3O)[C@@H](O)[C@H]1O", "target": "NAD kinase 1 (Listeria monocytogenes serotype 4b (strain F2365), UniProt Q721J8)", "class": 1}
{"molecule.smiles": "Nc1ncnc2c1ncn2[C@@H]1O[C@H](CN2CC#Cc3nc4c(N)ncnc4n3[C@@H]3O[C@H](CNC(=O)CCNC(=O)C2)[C@@H](O)[C@H]3O)[C@@H](O)[C@H]1O", "target": "NAD kinase 1 (Listeria monocytogenes serotype 4b (strain F2365), UniProt Q721J8)", "class": 1}
{"molecule.smiles": "Nc1ncnc2c1ncn2[C@@H]1O[C@H](CN2CC#Cc3nc4c(N)ncnc4n3[C@@H]3O[C@H](CNS(=O)(=O)CCNC(=O)C2)[C@@H](O)[C@H]3O)[C@@H](O)[C@H]1O", "target": "NAD kinase 1 (Listeria monocytogenes serotype 4b (strain F2365), UniProt Q721J8)", "class": 1}
{"molecule.smiles": "NCCS(=O)(=O)NC[C@H]1O[C@@H](n2c(C#CCN(CC(=O)O)C[C@H]3O[C@@H](n4cnc5c(N)ncnc54)[C@H](O)[C@@H]3O)nc3c(N)ncnc32)[C@H](O)[C@@H]1O", "target": "NAD kinase 1 (Listeria monocytogenes serotype 4b (strain F2365), UniProt Q721J8)", "class": -1}
